Molecular target: glycineB site of the NMDA receptor (rat cortical membranes) (Rattus norvegicus)
Construct: The cortex was dissected and homogenised in 20 volumes of ice-cold 0.32M sucrose
Assay: [3H]5,7-DCKA binding assay
Settings: 10 nM [3H]5,7-DCKA
Each entry below lists one item and its recorded pIC50 value.
FYI, pIC50 means -log10 of a concentration in mol per litre.

Completed entries (count: 6):
> print(dat)
                                   compound  numeric.result
1  O=c1[nH][nH]c(=O)c2nc3cc(Cl)c(Cl)cc3cc12            6.28
2  O=c1[nH][nH]c(=O)c2nc3ccc(Cl)cc3cc12 [Mrz 2/569]            6.01
3  O=c1[nH]nc(O)c2c1cc1cc(Cl)ccc1[n+]2[O-] [Mrz 2/576]            6.35
4  O=c1[nH]nc(O)c2c1cc1cc(F)ccc1[n+]2[O-] [Mrz 2/516]            6.52
5       O=c1[nH]nc(O)c2c1cc1ccccc1[n+]2[O-]            4.80
6  O=c1[nH][nH]c(=O)c2nc3ccc(F)cc3cc12 [Mrz 2/572]            5.94

Prompt: If you can, please state the reported pIC50 value of O=c1[nH]nc(O)c2c1cc1cc(Cl)ccc1[n+]2[O-] [Mrz 2/502] .
Response: 7.70

Prompt: Further, for O=c1[nH][nH]c(=O)c2nc3ccc(F)cc3cc12 [Mrz 2/519] ?
Response: 5.96

Prompt: Further, for O=c1[nH]nc(O)c2c1cc1cc(Cl)c(Cl)cc1[n+]2[O-] ?
Response: 6.19

Prompt: Further, for O=c1[nH]nc(O)c2c1cc1cc(F)ccc1[n+]2[O-] [Mrz 2/571] ?
Response: 6.49

###

Biological target: NMDA receptor (Mus musculus)
Construct: from tissue; host or cells: living mice (albino Swiss males for NMDA and PTZ tests, NMR females for MES)
Test: NMDA-induced convulsions / lethality test
Format: in vivo
Conditions: ip, 0.25 h, i.p., 15 min before induction, read-out: NMDA ID50
Each entry below lists one item and its recorded ED50 value.
Write down the numeric answer in mg/kg and omit the unit.

> print(dat)
                                   compound  numeric.result
1  O=c1[nH]nc(O)c2c1cc1cc(Cl)ccc1[n+]2[O-] [Mrz 2/502]              26

Prompt: Field: ED50 (NMDA receptor (Mus musculus)). Entry: O=c1[nH]nc(O)c2c1cc1cc(Br)ccc1[n+]2[O-] [Mrz 2/514]
Response: 99

Prompt: Further, for O=c1[nH]nc(O)c2c1cc1cc(F)ccc1[n+]2[O-] [Mrz 2/516] ?
Response: 40

Prompt: Further, for O=c1[nH][nH]c(=O)c2nc3ccccc3cc12 [Mrz 2/585] ?
Response: 58.9

Prompt: Further, for O=c1[nH][nH]c(=O)c2nc3cc(Cl)c(Cl)cc3cc12 [Mrz 2/515] ?
Response: 98

Prompt: Further, for O=c1[nH][nH]c(=O)c2nc3cc(Br)c(Cl)cc3cc12 [Mrz 2/538] ?
Response: 106

###

Biological target: glycineB site of the NMDA receptor (rat cortical membranes) (Rattus norvegicus, UniProt P35439)
Construct: The cortex was dissected and homogenised in 20 volumes of ice-cold 0.32M sucrose
Test: [3H]5,7-DCKA binding assay
Conditions: 10 nM [3H]5,7-DCKA
MEASURED ENDPOINT: pIC50
FYI, pIC50 means -log10 of a concentration in mol per litre.

Completed entries (count: 2):
> print(dat)
                                   compound  measured.endpoint  numeric.result
1      O=c1[nH][nH]c(=O)c2nc3ccc(Br)cc3cc12              pIC50            6.60
2  O=c1[nH][nH]c(=O)c2nc3ccc(Cl)cc3cc12 [Mrz 2/501]              pIC50            6.92

Continue with the compound presented below.
Prompt: If you can, please state the reported pIC50 value of O=c1[nH]nc(O)c2c1cc1cc(Br)ccc1[n+]2[O-] .
Response: 8.00
